Overview of reported IC50 across a group of molecules:
target: purified human IDO protein (Homo sapiens, UniProt P14902); construct: 2 extra amino acids (linker from the BglII cloning site of pQE70); made in house; host or cells: E. coli M15(pREP4) with plasmid pQE70-hIDO; test: Enzymatic IDO assay (kynurenine production, absorbance at 480 nm); assay type: biochemical; conditions: recombinant human IDO; values reported in ranges; read-out: hIDO IC50
Sequence (P14902 whole entry P110S/E119G): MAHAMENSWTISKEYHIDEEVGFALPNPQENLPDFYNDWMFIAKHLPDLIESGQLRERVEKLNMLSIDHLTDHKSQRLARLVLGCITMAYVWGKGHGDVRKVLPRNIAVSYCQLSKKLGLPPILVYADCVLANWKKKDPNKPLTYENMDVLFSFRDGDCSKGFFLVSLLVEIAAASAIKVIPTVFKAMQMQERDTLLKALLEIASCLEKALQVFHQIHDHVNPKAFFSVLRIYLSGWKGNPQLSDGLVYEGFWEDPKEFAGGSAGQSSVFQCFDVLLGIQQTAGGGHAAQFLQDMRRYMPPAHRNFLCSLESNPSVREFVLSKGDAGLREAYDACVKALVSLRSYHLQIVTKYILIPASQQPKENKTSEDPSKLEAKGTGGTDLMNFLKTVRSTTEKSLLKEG

Below are worked cases with known answers.
CN1CCN(CC(=O)Nc2ccc(CCOc3ccccc3-c3c[nH]cn3)cc2)CC1    10 to 100 µM
O=C(Nc1ccccc1)Nc1ccc(CCOc2ccccc2-c2cnc[nH]2)cc1    < 1 µM
Fc1ccc(-c2cnc[nH]2)cc1Cl    10 to 100 µM
CC(C)N(C(=O)Oc1ccc(Cl)cc1-c1c[nH]cn1)C(C)C    > 100 µM

stdin: Which IC50 reading was recorded for the molecule O=C(CN1CCOCC1)Nc1ccc(CCOc2ccccc2-c2c[nH]cn2)cc1 ?
stdout: 1 to 10 µM

---

biological target: purified human IDO protein (Homo sapiens); construct: 2 extra amino acids (linker from the BglII cloning site of pQE70); made in house; host or cells: E. coli M15(pREP4) with plasmid pQE70-hIDO; assay: Enzymatic IDO assay (kynurenine production, absorbance at 480 nm); type: biochemical; conditions: recombinant human IDO; values reported in ranges; read-out: hIDO IC50
pIC50: −log10 of the molar value.
Overview of reported pIC50 across a group of molecules:

c1nc(-c2ccc3c(c2)OCCO3)c[nH]1    < 4.00
Ic1ccccc1-c1cnc[nH]1    4.00 to 5.00

Next molecule, please.
stdin: Which pIC50 reading was recorded for the molecule O=C(O)c1ccccc1-c1c[nH]cn1 ?
stdout: < 4.00

---

biological target: purified human IDO protein (Homo sapiens); construct: 2 extra amino acids (linker from the BglII cloning site of pQE70); made in house; host or cells: E. coli M15(pREP4) with plasmid pQE70-hIDO; test: Enzymatic IDO assay (kynurenine production, absorbance at 480 nm); assay type: biochemical; settings: recombinant human IDO; values reported in ranges; read-out: hIDO IC50
pIC50: −log10 of the molar value.
reported_metric: pIC50

Below are worked cases with known answers.
Clc1ccc(CCOc2ccccc2-c2c[nH]cn2)cn1    4.00 to 5.00
Fc1ccc(OCCc2ccccc2)c(-c2cnc[nH]2)c1    4.00 to 5.00
Fc1ccccc1CCOc1ccccc1-c1cnc[nH]1    5.00 to 6.00
O=C(CC1CCOCC1)Nc1ccc(Cl)c(CCOc2ccccc2-c2c[nH]cn2)c1    4.00 to 5.00

Next compound, please.
stdin: Which pIC50 reading was recorded for the compound c1ccc2[nH]c(-c3c[nH]cn3)cc2c1 ?
stdout: 4.00 to 5.00

---

biological target: purified human IDO protein (Homo sapiens); construct: 2 extra amino acids (linker from the BglII cloning site of pQE70); made in house; host or cells: E. coli M15(pREP4) with plasmid pQE70-hIDO; assay: Enzymatic IDO assay (kynurenine production, absorbance at 480 nm); assay type: biochemical; details: recombinant human IDO; values reported in ranges; read-out: hIDO IC50
pIC50: −log10 of the molar value.
reported_metric: pIC50

O=C(O)c1ccc(C(=O)Nc2ccc(CCOc3ccccc3-c3c[nH]cn3)cc2)cc1 [compound 1270]    5.00 to 6.00
O=C(Cc1cccs1)Nc1ccc(CCOc2ccccc2-c2c[nH]cn2)cc1 [compound 1154]    5.00 to 6.00
Nc1ccc(CC(=O)Nc2ccc(CCOc3ccccc3-c3c[nH]cn3)cc2)cc1 [compound 1250]    5.00 to 6.00
NC(C(=O)Nc1ccc(CCOc2ccccc2-c2c[nH]cn2)c(Cl)c1)C1CCOCC1 (stereo not drawn) [compound 1333]    > 6.00
Oc1ncccc1-c1c[nH]cn1 [compound 1015, 3-(1H-imidazol-4-yl)pyridin-2-ol]    < 4.00
Oc1cc(F)ccc1-c1cnc[nH]1 [compound 1120, 5-fluoro-2-(1H-imidazol-5-yl)phenol]    4.00 to 5.00

stdin: Which pIC50 reading was recorded for the compound c1csc(-c2ccc(CCOc3ccccc3-c3c[nH]cn3)cc2)c1 [compound 1200] ?
stdout: 4.00 to 5.00

stdin: Which pIC50 reading was recorded for the compound c1ccc2c(-c3c[nH]cn3)cncc2c1 [compound 1004, 4-(1H-imidazol-4-yl)isoquinoline] ?
stdout: < 4.00

stdin: Which pIC50 reading was recorded for the compound COC(=O)[C@@H](Cc1cn(C)c2ccccc12)NC(=O)Oc1ccc(Cl)cc1-c1c[nH]cn1 [compound 1264] ?
stdout: 5.00 to 6.00

// provenance: patent US8722720B2
